MEASUREMENT TARGET: T1, SARS-CoV-2 spike on intact virus (SARS-CoV-2/human/AUS/VIC01/2020) (SARS-CoV-2, isolate human/AUS/VIC01/2020)
T1 construct: also called intact SARS-CoV-2; virions; source: virus grown in Vero cells, supernatant; captured on plates by mAb31
ASSAY EXPLANATION: ELISA; whole virus ELISA: SARS-CoV-2 virus captured on plates coated with mouse anti-spike mAb31, serial dilutions of IgG or Fab, ALP anti-human IgG (Fab-specific); Kd = concentration at half-maximal binding by nonlinear regression
RUN CONDITIONS: one partner purified
READOUT NAME: Kd (nM)
Your answer should be a plain number; it is taken to be in nM.

Entry Fab 88 (Fab, V domains shown, also called 88 Fab) VH: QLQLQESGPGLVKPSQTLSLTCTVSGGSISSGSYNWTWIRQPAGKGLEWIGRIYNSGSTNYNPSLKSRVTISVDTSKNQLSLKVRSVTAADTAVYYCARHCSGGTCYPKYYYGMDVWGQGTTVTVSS VL: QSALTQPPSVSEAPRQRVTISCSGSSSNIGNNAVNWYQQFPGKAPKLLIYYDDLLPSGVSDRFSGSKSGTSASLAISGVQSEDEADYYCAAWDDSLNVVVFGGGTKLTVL , Kd reported as 1.21

Entry Fab 150 (Fab, V domains shown) VH: QVQLVESGGGLIQPGGSLRLSCAASGVTVSSNYMSWVRQAPGKGLEWVSIIYSGGTTYYADSVKGRFTISRDSSMNTLYLQMNSLRAEDTAVYYCARDLMVYGIDVWGQGTTVTVSS VL: EIVMTQSPSSLSASVGDRVTITCRASQGISSYLAWYQQKPGKAPKLLIYAASTLQSGVPSRFSGSGSGTDFTLTISSLQPEDFATYYCQQLDSYPPGYTFGQGTKVDIK , Kd reported as 0.75

Entry mAb 88 (IgG) (antibody, V domains shown, IgG1) VH: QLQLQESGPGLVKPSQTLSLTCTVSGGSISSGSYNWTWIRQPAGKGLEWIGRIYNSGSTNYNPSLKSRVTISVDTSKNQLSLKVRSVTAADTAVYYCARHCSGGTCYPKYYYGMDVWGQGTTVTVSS VL: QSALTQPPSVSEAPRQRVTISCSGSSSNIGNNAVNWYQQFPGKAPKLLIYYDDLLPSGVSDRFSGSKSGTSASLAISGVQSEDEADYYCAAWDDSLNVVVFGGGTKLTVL , Kd reported as 0.25
